Test system: Caco-2 monolayer
Test: Caco-2 Permeability Assay
Assay type: in vitro ADME, human
Conditions: unit inferred

{"compound": "COCCOCCOC(=O)OCn1c(=O)c2c(ccn2COC(=O)OCCOCCOC)n(CCOC(C)C)c1=S [Example 106]", "Caco-2 Papp (×10⁻⁶ cm/s)": 13.9}

====

Test: Plasma Stability
Type: in vitro ADME, human
Details: human plasma, remaining at 1 h

{"query smiles": "CC(C)OCCn1c(SCOC(=O)N(C)CCOCCN)nc(=O)c2[nH]ccc21.O=C(O)C(F)(F)F", "human Plasma stability [% remaining]": 85}
{"query smiles": "CC(C)OCCn1c(SCOC(=O)N(C)CCOCCNC(=O)[C@H](N)C(C)C)nc(=O)c2[nH]ccc21.O=C(O)C(F)(F)F", "human Plasma stability [% remaining]": 1}
{"query smiles": "CC(C)OCCn1c(SCOC(=O)CCCOC(=O)[C@H](NC(=O)OC(C)(C)C)C(C)C)nc(=O)c2c1ccn2COC(=O)CCCOC(=O)[C@H](NC(=O)OC(C)(C)C)C(C)C", "human Plasma stability [% remaining]": 5}
{"query smiles": "CSCC[C@@H](N)C(=O)OCCC(=O)OCn1ccc2c1c(=O)[nH]c(=S)n2CCOC(C)C.O=C(O)C(F)(F)F", "human Plasma stability [% remaining]": 74}
{"query smiles": "CC(C)OCCn1c(SCOC(=O)CCCOC(=O)[C@H](N)Cc2ccccc2)nc(=O)c2c1ccn2COC(=O)CCCOC(=O)[C@H](N)Cc1ccccc1.O=C(O)C(F)(F)F.O=C(O)C(F)(F)F", "human Plasma stability [% remaining]": 31}
{"query smiles": "CC(C)OCCn1c(SCOC(=O)N(C)CCOCCN)nc(=O)c2c1ccn2COC(=O)N(C)CCOCCN.O=C(O)C(F)(F)F.O=C(O)C(F)(F)F", "human Plasma stability [% remaining]": 98}
{"query smiles": "CC(C)OCCn1c(=S)[nH]c(=O)c2c1ccn2COC(=O)CCCOC(=O)[C@@H](Cc1ccccc1)NC(=O)OC(C)(C)C", "human Plasma stability [% remaining]": 8}
{"query smiles": "CC(C)OCCn1c(=S)[nH]c(=O)c2c1ccn2COC(=O)CCCOC(=O)[C@H](N)Cc1ccccc1.O=C(O)C(F)(F)F", "human Plasma stability [% remaining]": 3}
{"query smiles": "CC(C)OCCn1c(SCOC(=O)CCCOC(=O)[C@@H](Cc2ccccc2)NC(=O)OC(C)(C)C)nc(=O)c2c1ccn2COC(=O)CCCOC(=O)[C@@H](Cc1ccccc1)NC(=O)OC(C)(C)C", "human Plasma stability [% remaining]": 42}
{"query smiles": "CC(C)OCCn1c(=S)n(COC(=O)CCCOC(=O)[C@@H](Cc2ccccc2)NC(=O)OC(C)(C)C)c(=O)c2c1ccn2COC(=O)CCCOC(=O)[C@@H](Cc1ccccc1)NC(=O)OC(C)(C)C", "human Plasma stability [% remaining]": 11}
{"query smiles": "CC(C)C[C@@H](N)C(=O)OCCCCC(=O)OCn1ccc2c1c(=O)[nH]c(=S)n2CCOC(C)C.O=C(O)C(F)(F)F", "human Plasma stability [% remaining]": 44}
{"query smiles": "CC(C)OCCn1c(=S)n(COC(=O)CCCOC(=O)[C@H](N)C(C)C)c(=O)c2c1ccn2COC(=O)CCCOC(=O)[C@H](N)C(C)C.O=C(O)C(F)(F)F.O=C(O)C(F)(F)F", "human Plasma stability [% remaining]": 3}
